test_target: c-kit (Homo sapiens)
Construct: MO7e (human megakaryocytic leukemia cell line) which had been arrested for 20 hr; endogenous in cells; host or cells: MO7e human megakaryocytic leukemia cell line
Sequence (P10721 26-976): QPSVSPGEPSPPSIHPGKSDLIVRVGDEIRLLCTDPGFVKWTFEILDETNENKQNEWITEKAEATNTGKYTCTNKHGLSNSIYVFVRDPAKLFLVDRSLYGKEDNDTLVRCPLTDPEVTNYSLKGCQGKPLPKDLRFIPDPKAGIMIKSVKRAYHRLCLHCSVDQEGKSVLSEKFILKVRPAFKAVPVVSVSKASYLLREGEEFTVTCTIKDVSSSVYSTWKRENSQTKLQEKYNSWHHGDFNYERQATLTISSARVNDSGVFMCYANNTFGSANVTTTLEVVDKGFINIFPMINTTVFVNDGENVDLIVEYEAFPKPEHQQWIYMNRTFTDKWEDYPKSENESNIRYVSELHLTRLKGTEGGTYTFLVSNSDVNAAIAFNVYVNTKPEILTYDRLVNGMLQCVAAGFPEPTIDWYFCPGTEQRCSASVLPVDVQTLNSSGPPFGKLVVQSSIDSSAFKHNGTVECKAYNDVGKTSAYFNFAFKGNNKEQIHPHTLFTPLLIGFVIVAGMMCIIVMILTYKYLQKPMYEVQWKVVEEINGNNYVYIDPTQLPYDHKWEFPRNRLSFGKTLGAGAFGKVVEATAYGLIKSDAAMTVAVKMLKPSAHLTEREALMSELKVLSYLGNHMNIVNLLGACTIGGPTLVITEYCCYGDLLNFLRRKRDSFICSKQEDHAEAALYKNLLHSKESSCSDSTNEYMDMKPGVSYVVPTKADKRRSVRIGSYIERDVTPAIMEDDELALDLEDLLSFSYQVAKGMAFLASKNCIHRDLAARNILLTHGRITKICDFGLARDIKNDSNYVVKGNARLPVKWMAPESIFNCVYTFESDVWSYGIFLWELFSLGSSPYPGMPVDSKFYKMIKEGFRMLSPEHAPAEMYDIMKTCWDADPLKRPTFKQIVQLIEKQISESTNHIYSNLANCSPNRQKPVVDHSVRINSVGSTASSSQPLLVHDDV
test_name: Inhibitory activity against c-kit autophosphorylation (MO7e cells, h-SCF)
Assay type: cell-based
condition_info: MO7e cells, 50 ng/ml h-SCF; read-out: c-kit IC50
Collected IC50 values appear next to each entry.

The cases that follow already have their IC50 on record.
compound: CCN(CCNC(=O)Nc1cc(C)c(Oc2ccnc3cc(OC)c(OC)cc23)cc1C)c1cccc(C)c1
IC50: 296 nM
//
compound: COc1cc2nccc(Oc3ccc(NC(=O)NC4CCN(Cc5ccccc5)CC4)cc3)c2cc1OC
IC50: 296 nM
//
compound: COc1cc2nccc(Oc3cc(C)c(NC(=S)NCCCn4ccnc4)cc3C)c2cc1OC
IC50: 415 nM
//
compound: COc1cc2nccc(Oc3cc(C)c(NC(=O)NCCN4CCOCC4)cc3C)c2cc1OC
IC50: 224 nM
//
compound: COc1cc2nccc(Oc3ccc(NC(=S)NC(=O)CC4CCCCC4)cc3Cl)c2cc1OC
IC50: 177 nM

// IC50 lookup, compound = COc1cc2nccc(Oc3ccc(NC(=S)NCCCN4CCCCC4C)c(C)c3C)c2cc1OC (centres unmarked) , result: 681 nM

compound COc1cc2nccc(Oc3ccc(OCC(=O)Nc4ccc(C)cc4)cc3)c2cc1OC , IC50 observed: 46 nM

Noted for COc1ccccc1COC(=O)N(C)c1ccc(Oc2ncnc3cc(OC)c(OC)cc23)cc1 : its IC50 reads 261 nM

Note to self: IC50 recorded for CCN(CC)CCNC(=S)Nc1ccc(Oc2ccnc3cc(OC)c(OC)cc23)cc1 was 487 nM

----------
test_target: PDGF-Ra (Homo sapiens)
Construct: host or cells: G-292 human osteosarcoma cells
Sequence (P16234 24-1089): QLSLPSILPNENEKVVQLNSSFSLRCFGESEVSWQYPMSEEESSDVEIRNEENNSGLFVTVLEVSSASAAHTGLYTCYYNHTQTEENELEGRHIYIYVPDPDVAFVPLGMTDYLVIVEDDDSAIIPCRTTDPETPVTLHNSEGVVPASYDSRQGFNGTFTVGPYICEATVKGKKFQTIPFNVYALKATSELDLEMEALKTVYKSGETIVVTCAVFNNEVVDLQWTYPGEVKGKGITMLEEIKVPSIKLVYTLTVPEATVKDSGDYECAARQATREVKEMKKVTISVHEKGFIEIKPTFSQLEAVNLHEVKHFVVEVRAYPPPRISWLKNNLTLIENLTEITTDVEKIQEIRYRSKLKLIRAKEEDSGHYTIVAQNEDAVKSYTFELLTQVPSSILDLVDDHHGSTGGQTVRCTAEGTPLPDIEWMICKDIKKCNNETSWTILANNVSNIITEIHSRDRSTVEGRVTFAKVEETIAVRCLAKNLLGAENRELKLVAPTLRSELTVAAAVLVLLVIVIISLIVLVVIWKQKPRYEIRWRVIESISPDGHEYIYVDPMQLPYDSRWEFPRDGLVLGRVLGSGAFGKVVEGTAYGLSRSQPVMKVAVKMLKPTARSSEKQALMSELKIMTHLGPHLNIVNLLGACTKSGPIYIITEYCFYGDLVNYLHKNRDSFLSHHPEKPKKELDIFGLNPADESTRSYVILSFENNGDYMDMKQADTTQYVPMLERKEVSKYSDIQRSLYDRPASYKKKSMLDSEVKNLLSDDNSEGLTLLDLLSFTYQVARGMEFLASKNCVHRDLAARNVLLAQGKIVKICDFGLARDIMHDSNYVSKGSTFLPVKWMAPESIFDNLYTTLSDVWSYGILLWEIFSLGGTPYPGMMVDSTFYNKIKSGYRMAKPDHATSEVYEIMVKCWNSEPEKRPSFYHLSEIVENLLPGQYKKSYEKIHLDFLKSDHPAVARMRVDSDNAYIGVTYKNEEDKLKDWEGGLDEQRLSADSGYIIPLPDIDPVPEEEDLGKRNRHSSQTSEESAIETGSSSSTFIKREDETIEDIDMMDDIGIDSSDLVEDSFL
test_name: Inhibitory activity against PDGF-Ra phosphorylation by PDGF-AA stimulation using G292
Type: cell-based
condition_info: Pharmacological Test Example 1; > means inhibition at indicated concentration not more than 50%, < and << not less than 50%; read-out: PDGF (E) IC50
Experimental: Measurement of Inhibitory Activity Against PDGF-Ra Phosphorylation by PDGF-AA Stimulation Using G292 […] This solubilized cell solution was transferred to a 96-well plate coated with aniti-phosphotyrosine antibody PY-20, and a reaction was allowed to proceed at 4° C. overnight. […] Color development was carried out using a color development kit for peroxidase (Sumitomo Bakelite Co., Ltd.), and the absorbance was measured at 450 nm.
// values below are reported pIC50
Reminder that pIC50 means the negative base-10 logarithm of the concentration expressed in mol/L.

Sample answers from the record:
molecule: C=CCOC(=O)Nc1ccc(Oc2ncnc3cc(OC)c(OC)cc23)cc1
test_target: PDGF-Ra (Homo sapiens)
readout_label: pIC50
observed_value: 7.13
--
molecule: COc1cc2nccc(Oc3cc(C)c(NC(=O)OCCCOc4ccccc4F)cc3C)c2cc1OC
test_target: PDGF-Ra (Homo sapiens)
readout_label: pIC50
observed_value: 7.74
--
molecule: COc1cc2ncnc(Oc3ccc(NC(=O)OCCCOc4ccccc4OC)cc3)c2cc1OC
test_target: PDGF-Ra (Homo sapiens)
readout_label: pIC50
observed_value: 7.80
--
molecule: COc1cc2nccc(Oc3ccc(NC(=O)OC(C)c4ccccc4Br)c(C)c3C)c2cc1OC (centres unmarked)
test_target: PDGF-Ra (Homo sapiens)
readout_label: pIC50
observed_value: 7.74
--
molecule: COc1cc2nccc(Oc3ccc(NC(=O)OCc4ccccc4C)c(C)c3C)c2cc1OC
test_target: PDGF-Ra (Homo sapiens)
readout_label: pIC50
observed_value: 7.96

The molecule listed as CCCOC(=O)Nc1cc(C)c(Oc2ccnc3cc(OC)c(OC)cc23)cc1C has a reported pIC50 of 7.57
